# collection of pKi values tested on Mu-type opioid receptor (Cavia porcellus, UniProt P97266)
# Sequence (P97266 whole entry): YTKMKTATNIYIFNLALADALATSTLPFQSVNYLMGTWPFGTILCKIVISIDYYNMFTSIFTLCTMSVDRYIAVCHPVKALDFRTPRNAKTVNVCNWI
Quick note: pKi means taking -log10 of the concentration in moles per liter.

In the examples that follow, each entry is paired with its recorded pKi.
| molecule | endpoint | numeric.readout |
| --- | --- | --- |
| C[C@H]1C2Cc3ccc(N(C)Cc4ccccc4)cc3[C@@]1(C)CCN2CC1CC1 (mixture of isomers) | pKi | 7.25 |
| C[C@H]1[C@H]2Cc3ccc(Nc4ccccc4)cc3[C@@]1(C)CCN2CC1CC1 (racemic) | pKi | 8.89 |
| C[C@H]1C2Cc3ccc(N)cc3[C@@]1(C)CCN2CC1CC1 (stereo in doubt; (+)-6) | pKi | 6.11 |
| C[C@H]1C2Cc3ccc(N(C)C)cc3[C@@]1(C)CCN2CC1CC1 (mixture of isomers) | pKi | 7.09 |
| C[C@H]1C2Cc3ccc(N)cc3[C@@]1(C)CCN2CC1CC1 (mixture of isomers) | pKi | 8.02 |

Find pKi (Mu-type opioid receptor (Cavia porcellus, UniProt P97266)) for the entry C[C@H]1C2Cc3ccc(NCc4ccccc4)cc3[C@@]1(C)CCN2CC1CC1 (stereo in doubt; (-)-14)
9.17

API: value(readout=pKi, system=Mu-type opioid receptor (Cavia porcellus, UniProt P97266)) for record C[C@H]1C2Cc3ccc(N)cc3[C@@]1(C)CCN2CC1CC1 (stereo in doubt; (-)-5)
8.74

Hello, I am looking for reported pKi with Mu-type opioid receptor (Cavia porcellus, UniProt P97266) for "C[C@@H]1[C@@H]2Cc3ccc(O)cc3[C@@]1(C)CN2CC1CC1" . Could you help?
6.44

For Mu-type opioid receptor (Cavia porcellus, UniProt P97266), provide pKi of CCNc1ccc2c(c1)[C@@]1(C)CCN(CC3CC3)C(C2)[C@@H]1C (mixture of isomers) please.
8.29

Record C[C@H]1C2Cc3ccc(N4CCN(C)CC4)cc3[C@@]1(C)CCN2CC1CC1 (mixture of isomers) : what is its pKi with Mu-type opioid receptor (Cavia porcellus, UniProt P97266)?
7.68

Given the entry C[C@H]1C2Cc3ccc(NCCc4ccccc4)cc3[C@@]1(C)CCN2CC1CC1 (mixture of isomers) , what pKi was observed with Mu-type opioid receptor (Cavia porcellus, UniProt P97266)?
8.05

Tell me reported pKi for C[C@H]1C2Cc3ccc(N4CCOCC4)cc3[C@@]1(C)CCN2CC1CC1 (mixture of isomers) , tested with Mu-type opioid receptor (Cavia porcellus, UniProt P97266).
6.19

Request body: readout pKi, system Mu-type opioid receptor (Cavia porcellus, UniProt P97266), query C[C@H]1[C@H]2Cc3ccc(Nc4ccccc4)cc3[C@@]1(C)CCN2CC1CC1 (stereo in doubt; (-)-11) . Return the value.
8.96

----------
Kappa-type opioid receptor (Cavia porcellus): reported Ki for various compounds.
Sequence (P41144 whole entry): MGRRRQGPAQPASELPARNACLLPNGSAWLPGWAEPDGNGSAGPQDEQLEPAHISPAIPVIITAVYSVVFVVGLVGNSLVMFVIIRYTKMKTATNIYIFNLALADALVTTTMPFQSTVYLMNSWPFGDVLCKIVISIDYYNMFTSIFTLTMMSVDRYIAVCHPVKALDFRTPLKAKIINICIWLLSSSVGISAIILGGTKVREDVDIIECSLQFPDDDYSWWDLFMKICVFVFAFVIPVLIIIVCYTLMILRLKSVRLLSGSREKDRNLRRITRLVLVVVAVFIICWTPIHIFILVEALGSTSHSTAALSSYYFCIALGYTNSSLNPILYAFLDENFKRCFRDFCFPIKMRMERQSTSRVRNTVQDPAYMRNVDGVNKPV
Kindly answer with a numeric value in nM, unit omitted.

| compound | assay.system | unit.abbreviation | Ki |
| --- | --- | --- | --- |
| C[C@H]1C2Cc3ccc(N)cc3[C@@]1(C)CCN2CC1CC1 (stereo in doubt; (+)-6) | Kappa-type opioid receptor (Cavia porcellus) | nM | 506 |
| C[C@H]1C2Cc3ccc(N(C)Cc4ccccc4)cc3[C@@]1(C)CCN2CC1CC1 (mixture of isomers) | Kappa-type opioid receptor (Cavia porcellus) | nM | 44 |
| C[C@H]1C2Cc3ccc(N4CCCCC4)cc3[C@@]1(C)CCN2CC1CC1 (mixture of isomers) | Kappa-type opioid receptor (Cavia porcellus) | nM | 300 |
| C[C@H]1C2Cc3ccc(NCc4ccccc4)cc3[C@@]1(C)CCN2CC1CC1 (mixture of isomers) | Kappa-type opioid receptor (Cavia porcellus) | nM | 4.7 |
| C[C@H]1[C@H]2Cc3ccc(Nc4ccccc4)cc3[C@@]1(C)CCN2CC1CC1 (racemic) | Kappa-type opioid receptor (Cavia porcellus) | nM | 0.83 |

Give recorded Ki with Kappa-type opioid receptor (Cavia porcellus) for the following compound: C[C@H]1C2Cc3ccc(NCCc4ccccc4)cc3[C@@]1(C)CCN2CC1CC1 (mixture of isomers)
11

Find Ki (Kappa-type opioid receptor (Cavia porcellus)) for the entry C[C@H]1[C@H]2Cc3ccc(O)cc3[C@@]1(C)CCN2CC1CC1 (racemic)
0.18

Item: "C[C@@H]1[C@@H]2Cc3ccc(O)cc3[C@@]1(C)CN2CC1CC1" Test system: Kappa-type opioid receptor (Cavia porcellus) Read-out: Ki Value: ?
76
